Numbers sourced from patent US11533912B2.

Documented Average Diameter of the Colony across a set of molecules
System: C. gossypii
assay_overview: Ex vivo mycelial growth, growth rate method
Type: cell-based
experimental_conditions: 1 mg/mL
Answer format: numeric, cm implied, no suffix.

# annotated cases, reported Average Diameter of the Colony shown
molecule	experimental_value
CCOC(=O)/C=C/c1ccc(OC)c(OC)c1	1.33
CCOC(=O)/C=C/c1ccc2c(c1)OCO2	1.74
CCOC(=O)/C=C/c1ccc(OC)c(F)c1	0.42

Then there is this molecule:
Considering COC(=O)C=Cc1ccc(OC)c(OC)c1 [Control Compound A, methyl 3,4-dimethoxy cinnamate, reference compound] , its Average Diameter of the Colony with C. gossypii was recorded as 3.83

----------
The following compounds are shown together with reported Average Diameter of the Colony values.
Test system: Mycosphaerlla melonis
assay_overview: Ex vivo mycelial growth, growth rate method
Assay type: cell-based
experimental_conditions: 1 mg/mL
Record the value in cm, omitting the unit from your answer.

compound	Average Diameter of the Colony / cm
CCOC(=O)/C=C/c1ccc2c(c1)OCO2	0.75
COC(=O)C=Cc1ccc(OC)c(OC)c1 [Control Compound A, methyl 3,4-dimethoxy cinnamate, reference compound]	0.67
CCOC(=O)/C=C/c1ccc(OC)c(F)c1	0.37

Would you kindly look at the next entry?
The compound identified as CCOC(=O)/C=C/c1ccc(OC)c(OC)c1 registered its Average Diameter of the Colony at 0.05

----------
Average Diameter of the Colony: recorded values
Tested on: Pyricularia grisea
assay_overview: microbe, parasite or virus in culture
Assay type: cell-based
experimental_conditions: 1 mg/mL
Report the figure in cm without appending any unit label.

Examples with their reported Average Diameter of the Colony follow.
compound	Average Diameter of the Colony (cm)
CCOC(=O)/C=C/c1ccc2c(c1)OCO2	2.70
COC(=O)C=Cc1ccc(OC)c(OC)c1 [Control Compound A, methyl 3,4-dimethoxy cinnamate, reference compound]	3.83

For reference, reported Average Diameter of the Colony for CCOC(=O)/C=C/c1ccc(OC)c(F)c1 stands at 7.70

Entry CCOC(=O)/C=C/c1ccc(OC)c(OC)c1 — recorded Average Diameter of the Colony = 5.47

----------
Test system: Phytophthora infestans
Type: cell-based
experimental_conditions: Phytophthora infestans (first line); 1 mg/mL
Listing of entries alongside the reported Average Diameter of the Colony.
Expressed in cm, but write only the number.

molecule	Average Diameter of the Colony (cm)
CCOC(=O)/C=C/c1ccc(OC)c(F)c1	1.40
COC(=O)C=Cc1ccc(OC)c(OC)c1 [Control Compound A, methyl 3,4-dimethoxy cinnamate, reference compound]	2.77
CCOC(=O)/C=C/c1ccc(OC)c(OC)c1	1.33

// molecule CCOC(=O)/C=C/c1ccc2c(c1)OCO2 , assay Phytophthora infestans, Average Diameter of the Colony value: 2.01

----------
Test system: F. oxysporum f. sp. vasinfectum
assay_overview: Ex vivo mycelial growth, growth rate method
Type: cell-based
experimental_conditions: 1 mg/mL
Known Average Diameter of the Colony of a selection of molecules
State just the number; it will be interpreted in cm.

# Average Diameter of the Colony of COC(=O)C=Cc1ccc(OC)c(OC)c1 [Control Compound A, methyl 3,4-dimethoxy cinnamate, reference compound] = 2.43

// field: Average Diameter of the Colony; key: CCOC(=O)/C=C/c1ccc(OC)c(OC)c1 ; value = 2.68

Value of Average Diameter of the Colony reported for the molecule CCOC(=O)/C=C/c1ccc(OC)c(F)c1 is 4.45

According to the records, this molecule CCOC(=O)/C=C/c1ccc2c(c1)OCO2 displays Average Diameter of the Colony of 2.58
